- TEST NAME: Tmax in male C57BL/6 mouse at 10 mg/kg, po measured after 24 hrs by UPLC/MS/MS analysis
- Format: ADME, organism-based
- EXPERIMENTAL CONDITIONS: in vivo
MEASURED METRIC: Tmax (h)
Your answer should be a plain number; it is taken to be in h.

For the molecule shown here, Cn1nc([C@@H]2O[C@H](CO)[C@H](O)[C@H](n3cc(-c4ccc(Br)c(F)c4F)nn3)[C@H]2O)n(-c2cc(Cl)ccc2C(F)(F)F)c1=S (stereo in doubt; 20) , give the reported Tmax. 3

For the molecule shown here, `OC[C@H]1O[C@H](Sc2ccc(Cl)c(Cl)c2)[C@H](O)[C@@H](n2cc(-c3cc(F)c(F)c(F)c3)nn2)[C@H]1O` , give the reported Tmax. 7

For the molecule shown here, `OC[C@H]1O[C@@H](c2ncnn2-c2ccc(Cl)c(Cl)c2)[C@H](O)[C@@H](n2cc(-c3cc(F)c(F)c(F)c3)nn2)[C@H]1O` , give the reported Tmax. 3

For the molecule shown here, `Cc1nc([C@@H]2O[C@H](CO)[C@H](O)[C@H](n3cc(-c4cc(F)c(Cl)c(F)c4)nn3)[C@H]2O)n(-c2cc(Cl)ccc2C(F)(F)F)n1` , give the reported Tmax. 3

For the molecule shown here, `CO[C@@H]1[C@@H](n2cc(-c3ccc(Cl)c(F)c3F)nn2)[C@@H](O)[C@@H](CO)O[C@H]1c1nncn1-c1cc(Cl)ccc1OC(F)(F)F` , give the reported Tmax. 3

----------
- TEST NAME: Permeability of the compound across apical to basolateral side in human Caco-2 cells assessed as drug recovery at pH 7.4 incubated for 2 hrs by LC-MS/MS analysis
- Assay type: ADME, cell-based
- EXPERIMENTAL CONDITIONS: Caco-2, pH 7.4, read-out: Drug recovery
MEASURED METRIC: recovery at 2 h (%)
Your answer should be a plain number; it is taken to be in %.

For the compound shown here, Cn1nc([C@@H]2O[C@H](CO)[C@H](O)[C@H](n3cc(-c4ccc(Br)c(F)c4F)nn3)[C@H]2O)n(-c2cc(Cl)ccc2C(F)(F)F)c1=S (stereo in doubt; 20) , give the reported recovery at 2 h. 59

For the compound shown here, OC[C@H]1O[C@@H](c2n[nH]c(=S)n2-c2cc(Cl)ccc2OC(F)(F)F)[C@H](O)[C@@H](n2cc(-c3ccc(Cl)c(F)c3F)nn2)[C@H]1O (stereo in doubt; 16) , give the reported recovery at 2 h. 67

----------
- TEST NAME: Permeability of the compound at pH 7.4 incubated for 4 hrs by PAMPA
- Format: ADME
- EXPERIMENTAL CONDITIONS: pampa, pH 7.4, 4 h, 4 h
MEASURED METRIC: permeability
// return the numeric value with its unit appended

For the compound shown here, Cn1nc([C@@H]2O[C@H](CO)[C@H](O)[C@H](n3cc(-c4ccc(Br)c(F)c4F)nn3)[C@H]2O)n(-c2cc(Cl)ccc2C(F)(F)F)c1=S (stereo in doubt; 21) , give the reported permeability. 280 nm/s

For the compound shown here, Cc1nnc([C@@H]2O[C@H](CO)[C@H](O)[C@H](n3cc(-c4cc(F)c(Cl)c(F)c4)nn3)[C@H]2O)n1-c1cc(Cl)ccc1C(F)(F)F (stereo in doubt; 4) , give the reported permeability. 44 nm/s

For the compound shown here, Cn1nc([C@@H]2O[C@H](CO)[C@H](O)[C@H](n3cc(-c4ccc(Br)c(F)c4F)nn3)[C@H]2O)n(-c2cc(Cl)ccc2C(F)(F)F)c1=S (stereo in doubt; 20) , give the reported permeability. 86 nm/s

For the compound shown here, OC[C@H]1O[C@@H](c2n[nH]c(=S)n2-c2cc(Cl)ccc2C(F)(F)F)[C@H](O)[C@@H](n2cc(-c3ccc(Br)c(F)c3F)nn2)[C@H]1O (stereo in doubt; 19) , give the reported permeability. 2 nm/s

For the compound shown here, Cc1nnc([C@@H]2O[C@H](CO)[C@H](O)[C@H](n3cc(-c4cc(F)c(Cl)c(F)c4)nn3)[C@H]2O)n1-c1cc(Cl)ccc1C(F)(F)F (stereo in doubt; 5) , give the reported permeability. 16 nm/s

----------
What IC50 was measured for each of the following?
- TEST TARGET: Galectin-3 (Homo sapiens, UniProt P17931)
- Sequence (P17931 whole entry): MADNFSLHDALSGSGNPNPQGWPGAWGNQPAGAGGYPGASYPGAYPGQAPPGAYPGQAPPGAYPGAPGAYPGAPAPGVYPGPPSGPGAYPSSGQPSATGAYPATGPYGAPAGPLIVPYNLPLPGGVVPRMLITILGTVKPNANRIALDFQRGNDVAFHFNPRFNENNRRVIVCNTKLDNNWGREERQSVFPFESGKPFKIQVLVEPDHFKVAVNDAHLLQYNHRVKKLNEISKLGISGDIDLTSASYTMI
- TEST NAME: Inhibition of his-tagged N-terminal recombinant human Gal-3 preincubated for 30 mins followed by Biotin-ASF addition and measured after 1 hr by HTRF assay
Your answer should be a plain number; it is taken to be in nM.

For the molecule shown here, OC[C@H]1O[C@@H](c2n[nH]c(=S)n2-c2cc(Cl)ccc2OC(F)(F)F)[C@H](O)[C@@H](n2cc(-c3ccc(Cl)c(F)c3F)nn2)[C@H]1O (stereo in doubt; 17) , give the reported IC50. 70

For the molecule shown here, `CO[C@@H]1[C@@H](n2cc(-c3ccc(Br)c(F)c3)nn2)[C@@H](O)[C@@H](CO)O[C@H]1c1nncn1-c1cc(Cl)ccc1C(F)(F)F` , give the reported IC50. 22

For the molecule shown here, `CO[C@@H]1[C@@H](n2cc(-c3ccc(Br)c(F)c3F)nn2)[C@@H](O)[C@@H](CO)O[C@H]1c1nncn1-c1cc(Cl)ccc1C(F)(F)F` , give the reported IC50. 9

For the molecule shown here, OC[C@H]1O[C@@H](c2n[nH]c(=S)n2-c2cc(Cl)ccc2C(F)(F)F)[C@H](O)[C@@H](n2cc(-c3ccc(Br)c(F)c3F)nn2)[C@H]1O (stereo in doubt; 18) , give the reported IC50. 6.9

For the molecule shown here, OC[C@H]1O[C@@H](c2n[nH]c(=S)n2-c2cc(Cl)ccc2OC(F)(F)F)[C@H](O)[C@@H](n2cc(-c3ccc(Cl)c(F)c3F)nn2)[C@H]1O (stereo in doubt; 16) , give the reported IC50. 7

For the molecule shown here, `OC[C@H]1O[C@@H](c2nncn2-c2cc(Cl)ccc2OC(F)(F)F)[C@H](O)[C@@H](n2cc(-c3ccc(Cl)c(F)c3F)nn2)[C@H]1O` , give the reported IC50. 13

For the molecule shown here, Cc1nnc([C@@H]2O[C@H](CO)[C@H](O)[C@H](n3cc(-c4cc(F)c(Cl)c(F)c4)nn3)[C@H]2O)n1-c1cc(Cl)ccc1C(F)(F)F (stereo in doubt; 5) , give the reported IC50. 1300

For the molecule shown here, OC[C@H]1O[C@@H](c2n[nH]c(=S)n2-c2cc(Cl)ccc2C(F)(F)F)[C@H](O)[C@@H](n2cc(-c3ccc(Br)c(F)c3F)nn2)[C@H]1O (stereo in doubt; 19) , give the reported IC50. 76

----------
What log10 IC50 was measured for each of the following?
- TEST TARGET: Galectin-3 (Mus musculus, UniProt P16110)
- Sequence (P16110 whole entry): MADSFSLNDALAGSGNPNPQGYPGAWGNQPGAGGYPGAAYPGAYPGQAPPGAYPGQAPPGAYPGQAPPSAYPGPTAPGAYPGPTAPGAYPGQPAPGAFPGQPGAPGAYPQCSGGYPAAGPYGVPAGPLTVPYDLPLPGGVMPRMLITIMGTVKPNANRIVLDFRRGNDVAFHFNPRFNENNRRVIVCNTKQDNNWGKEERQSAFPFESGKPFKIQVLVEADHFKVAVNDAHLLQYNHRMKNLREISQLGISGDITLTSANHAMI
- TEST NAME: Inhibition of his-tagged N-terminal recombinant mouse Gal-3 preincubated for 30 mins followed by Biotin-ASF addition and measured after 1 hr by HTRF assay
Note the log scale: values are log10 of IC50 expressed in µM.

For the compound shown here, OC[C@H]1O[C@@H](c2n[nH]c(=S)n2-c2cc(Cl)ccc2OC(F)(F)F)[C@H](O)[C@@H](n2cc(-c3ccc(Cl)c(F)c3F)nn2)[C@H]1O (stereo in doubt; 17) , give the reported log10 IC50. -0.14

For the compound shown here, Cc1nnc([C@@H]2O[C@H](CO)[C@H](O)[C@H](n3cc(-c4cc(F)c(Cl)c(F)c4)nn3)[C@H]2O)n1-c1cc(Cl)ccc1C(F)(F)F (stereo in doubt; 5) , give the reported log10 IC50. 0.85

For the compound shown here, `OC[C@H]1O[C@@H](c2nncn2-c2cc(Cl)ccc2C(F)(F)F)[C@H](O)[C@@H](n2cc(-c3ccc(Br)c(F)c3F)nn2)[C@H]1O` , give the reported log10 IC50. -1.16

For the compound shown here, Cc1nnc([C@@H]2O[C@H](CO)[C@H](O)[C@H](n3cc(-c4cc(F)c(Cl)c(F)c4)nn3)[C@H]2O)n1-c1cc(Cl)ccc1C(F)(F)F (stereo in doubt; 4) , give the reported log10 IC50. -1.17

For the compound shown here, `OC[C@H]1O[C@@H](c2nncn2-c2cc(Cl)ccc2C(F)(F)F)[C@H](OCC(F)(F)C(F)F)[C@@H](n2cc(-c3ccc(Br)c(F)c3F)nn2)[C@H]1O` , give the reported log10 IC50. -0.96

For the compound shown here, `CO[C@@H]1[C@@H](n2cc(-c3ccc(Br)c(F)c3)nn2)[C@@H](O)[C@@H](CO)O[C@H]1c1nncn1-c1cc(Cl)ccc1C(F)(F)F` , give the reported log10 IC50. -1.15

For the compound shown here, `OC[C@H]1O[C@@H](c2nncn2-c2cc(Cl)ccc2C(F)(F)F)[C@H](O)[C@@H](n2cc(-c3ccc(Cl)c(F)c3)nn2)[C@H]1O` , give the reported log10 IC50. -1.00

For the compound shown here, `CO[C@@H]1[C@@H](n2cc(-c3ccc(Cl)c(F)c3F)nn2)[C@@H](O)[C@@H](CO)O[C@H]1c1nncn1-c1cc(Cl)ccc1OC(F)(F)F` , give the reported log10 IC50. -1.00

For the compound shown here, OC[C@H]1O[C@@H](c2n[nH]c(=S)n2-c2cc(Cl)ccc2C(F)(F)F)[C@H](O)[C@@H](n2cc(-c3ccc(Br)c(F)c3F)nn2)[C@H]1O (stereo in doubt; 18) , give the reported log10 IC50. -1.60

For the compound shown here, `OC[C@H]1O[C@@H](c2nncn2-c2cc(Cl)ccc2OC(F)(F)F)[C@H](O)[C@@H](n2cc(-c3ccc(Cl)c(F)c3F)nn2)[C@H]1O` , give the reported log10 IC50. -1.00

For the compound shown here, `CO[C@@H]1[C@@H](n2cc(-c3cc(F)c(Cl)c(F)c3)nn2)[C@@H](O)[C@@H](CO)O[C@H]1c1nncn1-c1cc(Cl)ccc1C(F)(F)F` , give the reported log10 IC50. -0.80

For the compound shown here, OC[C@H]1O[C@@H](c2n[nH]c(=S)n2-c2cc(Cl)ccc2C(F)(F)F)[C@H](O)[C@@H](n2cc(-c3ccc(Br)c(F)c3F)nn2)[C@H]1O (stereo in doubt; 19) , give the reported log10 IC50. 0.00

For the compound shown here, `CO[C@@H]1[C@@H](n2cc(-c3ccc(Br)c(F)c3F)nn2)[C@@H](O)[C@@H](CO)O[C@H]1c1nncn1-c1cc(Cl)ccc1C(F)(F)F` , give the reported log10 IC50. -1.28

For the compound shown here, Cn1nc([C@@H]2O[C@H](CO)[C@H](O)[C@H](n3cc(-c4ccc(Br)c(F)c4F)nn3)[C@H]2O)n(-c2cc(Cl)ccc2C(F)(F)F)c1=S (stereo in doubt; 21) , give the reported log10 IC50. 0.58

For the compound shown here, `OC[C@H]1O[C@@H](c2nncn2-c2cc(Cl)ccc2OC(F)(F)F)[C@H](O)[C@@H](n2cc(-c3ccc(Br)c(F)c3F)nn2)[C@H]1O` , give the reported log10 IC50. -1.21

Cited source: ChEMBL document CHEMBL5576131
